experiment: amyloid nucleation score (Sup35N fusion, yeast selection) (log enrichment); library NNK2; higher = more nucleation; inactive = no reads after selection;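 note: zero at mode of non-aggregating sequences after 7 days selection at 30°C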
Catalogue of amyloid nucleation score values

{"sequence.chain": "LCNYLFSFEQMRNN", "amyloid nucleation score": -0.124}
{"sequence.chain": "DGKNYVKTNSNGIRNGMSIW", "amyloid nucleation score": -0.576}
{"sequence.chain": "CMDQNVEPCSLVWQTYFPCY", "amyloid nucleation score": -0.419}
{"sequence.chain": "SLWTYRARTKGCHYVHSVLM", "amyloid nucleation score": 0.164}
{"sequence.chain": "WTWEKWESPHEDGSRRPIVG", "amyloid nucleation score": 1.55}
{"sequence.chain": "TQIFYSLRILLVDKLVSCGA", "amyloid nucleation score": -0.787}
{"sequence.chain": "FKSLVSMVENDWMS", "amyloid nucleation score": -0.855}
{"sequence.chain": "NNYATCNVHCMFMMI", "amyloid nucleation score": 10.2}
{"sequence.chain": "MFNFWWSFYALFKLSWRPGF", "amyloid nucleation score": -0.996}
{"sequence.chain": "WLWSSLISSMVVYSQ", "amyloid nucleation score": 2.53}
{"sequence.chain": "RALCTKVRTLLCFYLGVLWS", "amyloid nucleation score": 0.903}
{"sequence.chain": "RCGCHDCVFLR", "amyloid nucleation score": -0.202}
{"sequence.chain": "CLSASTALREGFWNPWRCGS", "amyloid nucleation score": 0.164}
{"sequence.chain": "CTHWLDPDFVL", "amyloid nucleation score": -0.666}
{"sequence.chain": "TSPGTGIVGDIYLHYIFVKW", "amyloid nucleation score": 0.327}
{"sequence.chain": "NDKVFYGRFSFHHVGHWCRV", "amyloid nucleation score": -0.506}
{"sequence.chain": "LYDFRDSYAYVCLTGYKYLG", "amyloid nucleation score": 1.02}
